IC50 values by entry
Target: PIK3CD (Human) (UniProt O00329)
Sequence (O00329 whole entry, looked up): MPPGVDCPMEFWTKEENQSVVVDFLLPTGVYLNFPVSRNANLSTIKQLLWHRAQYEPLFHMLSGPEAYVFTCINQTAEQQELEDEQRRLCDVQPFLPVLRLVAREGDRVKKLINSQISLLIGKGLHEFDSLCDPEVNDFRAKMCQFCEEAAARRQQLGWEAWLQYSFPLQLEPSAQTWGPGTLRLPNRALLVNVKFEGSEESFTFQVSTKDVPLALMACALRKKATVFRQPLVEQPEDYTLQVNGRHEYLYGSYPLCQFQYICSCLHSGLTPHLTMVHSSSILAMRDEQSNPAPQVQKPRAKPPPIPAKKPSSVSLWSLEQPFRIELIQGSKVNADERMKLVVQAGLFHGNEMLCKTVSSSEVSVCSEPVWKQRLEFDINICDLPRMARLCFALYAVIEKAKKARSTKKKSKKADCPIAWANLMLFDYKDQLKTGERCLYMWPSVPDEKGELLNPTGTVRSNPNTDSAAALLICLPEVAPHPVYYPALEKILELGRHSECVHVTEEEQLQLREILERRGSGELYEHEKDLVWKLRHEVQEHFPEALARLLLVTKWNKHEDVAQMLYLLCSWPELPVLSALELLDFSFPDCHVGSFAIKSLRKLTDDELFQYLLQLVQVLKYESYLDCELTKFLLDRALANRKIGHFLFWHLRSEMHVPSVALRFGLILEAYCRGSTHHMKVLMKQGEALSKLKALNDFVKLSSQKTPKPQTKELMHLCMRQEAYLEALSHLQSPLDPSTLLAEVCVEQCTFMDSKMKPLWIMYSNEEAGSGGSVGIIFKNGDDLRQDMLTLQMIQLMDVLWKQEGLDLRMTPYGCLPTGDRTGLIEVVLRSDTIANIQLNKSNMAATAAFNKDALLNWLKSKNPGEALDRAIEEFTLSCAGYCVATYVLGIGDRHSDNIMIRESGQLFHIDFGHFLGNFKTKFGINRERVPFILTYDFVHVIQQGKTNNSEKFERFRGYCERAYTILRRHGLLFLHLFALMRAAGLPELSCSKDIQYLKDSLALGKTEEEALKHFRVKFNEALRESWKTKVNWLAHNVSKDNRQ
Test: Assessment of PIK3CD Kinase Activity

C[C@H](Nc1nc(N)ncc1C#N)c1cc2cccc(-c3ccc(S(C)(=O)=O)cc3)c2c(=O)n1-c1ccccc1 ... < 0.1 µM

Observed IC50 on PIK3CD (Human) (UniProt O00329) for C[C@H](Nc1nc(N)ncc1C#N)c1cc2cccc(Cl)c2c(=O)n1-c1ccccc1 , please.
< 0.1 µM

Look up IC50 with PIK3CD (Human) (UniProt O00329) for this compound: C[C@H](Nc1nc(N)ncc1-c1ccoc1)c1cc2cccc(Cl)c2c(=O)n1-c1ccccc1
0.1 to 1 µM

Record C[C@H](Nc1nc(N)ncc1C#N)c1cc2cccc(-c3ccnnc3)c2c(=O)n1-c1cccc(F)c1 : what is its IC50 with PIK3CD (Human) (UniProt O00329)?
< 0.1 µM

Return IC50 measured with PIK3CD (Human) (UniProt O00329) given this compound: COc1ncc(-c2cccc3cc([C@H](C)Nc4nc(N)ncc4C(N)=O)n(-c4ccccc4)c(=O)c23)cn1
< 0.1 µM

Request - read-out IC50 | tested on PIK3CD (Human) (UniProt O00329) | compound C[C@H](Nc1nc(N)ncc1-c1ccsc1)c1cc2cccc(Cl)c2c(=O)n1-c1ccccc1
< 0.1 µM

Under PIK3CD (Human) (UniProt O00329): IC50 value of C[C@H](Nc1nc(N)ncc1C#N)c1cc2cccc(-c3cnc4[nH]ccc4c3)c2c(=O)n1-c1cccc(F)c1 ?
< 0.1 µM

Which measured IC50 belongs to COc1ncc(-c2cccc3cc([C@H](C)Nc4nc(N)ncc4C#N)n(C(C)C)c(=O)c23)cn1 , tested on PIK3CD (Human) (UniProt O00329)?
< 0.1 µM

Form field - read-out: IC50; system: PIK3CD (Human) (UniProt O00329); submitted item: C[C@H](Nc1nc(N)ncc1C#N)c1cc2cccc(-c3cnc4ccccc4c3)c2c(=O)n1-c1ccccc1
< 0.1 µM

API: value(readout=IC50, system=PIK3CD (Human) (UniProt O00329)) for record COc1cccc(-c2cccc3cc([C@H](C)Nc4nc(N)ncc4C#N)n(-c4ccccc4)c(=O)c23)c1
< 0.1 µM

---

Target: PIK3CB (Human)
Experiment: Assessment of PIK3CB Kinase Activity
pIC50: −log10 of the molar value.
Entries and their pIC50 values follow.

Example cases with answers are listed next.
C[C@H](Nc1nc(N)ncc1-c1ccoc1)c1cc2cccc(Cl)c2c(=O)n1-c1ccccc1 ... < 5.00
COc1ncc(-c2cccc3cc([C@H](C)Nc4nc(N)ncc4C(F)(F)F)n(-c4ccccc4)c(=O)c23)cn1 ... < 5.00
C[C@H](Nc1nc(N)ncc1C#N)c1cc2cccc(Cl)c2c(=O)n1-c1cc(F)cc(F)c1 ... < 5.00

Suppose we examine the compound COc1ncc(-c2cccc3cc([C@H](C)Nc4nc(N)ncc4C(F)(F)F)n(-c4cccc(F)c4)c(=O)c23)cn1 ; what pIC50 value has been reported?
< 5.00

Field request: pIC50 | item: Cc1ncc(-c2cccc3cc([C@H](C)Nc4nc(N)ncc4C#N)n(-c4ccon4)c(=O)c23)cn1
< 5.00

Which pIC50 is listed for C[C@H](Nc1nc(N)ncc1C(=O)N1CC(F)(F)C1)c1cc2cccc(Cl)c2c(=O)n1-c1ccccc1 ?
< 5.00

Look up pIC50 for this compound: C[C@H](Nc1nc(N)ncc1C#N)c1cc2cccc(Cl)c2c(=O)n1-c1ccon1
6.00 to 7.00

Can you look up the measured pIC50 of C[C@H](Nc1nc(N)ncc1-c1cccc(S(=O)(=O)N2CCCC2)c1)c1cc2cccc(Cl)c2c(=O)n1-c1ccccc1 for me?
6.00 to 7.00

Fill in: pIC50 of COc1cncc(-c2cccc3cc([C@H](C)Nc4nc(N)ncc4C#N)n(-c4ccccc4)c(=O)c23)n1 is ___
< 5.00

Suppose we examine the compound C#Cc1cnc(N)nc1N[C@@H](C)c1cc2cccc(Cl)c2c(=O)n1-c1ccccc1 ; what pIC50 value has been reported?
6.00 to 7.00

I would be grateful if you could share the reported pIC50 for C[C@H](Nc1nc(N)ncc1-c1cscn1)c1cc2cccc(Cl)c2c(=O)n1-c1ccccc1 .
6.00 to 7.00

Which value of pIC50 has been reported for Cc1cccc2cc([C@H](C)Nc3nc(N)ncc3C#N)n(-c3cccc(F)c3)c(=O)c12 in the records?
6.00 to 7.00

// returns reported pIC50 for input C[C@H](Nc1cc(N)ncn1)c1cc2cccc(Cl)c2c(=O)n1-c1ccccc1
< 5.00

What value of pIC50 has been reported for the following compound? C[C@H](Nc1ncncc1-c1cccc(S(=O)(=O)N(C)C)c1)c1cc2cccc(Cl)c2c(=O)n1-c1ccccc1
< 5.00

---

Molecular target: PIK3CD (Human) (UniProt O00329)
Test: Assessment of PIK3CD Kinase Activity
pIC50: −log10 of the molar value.
reported.property: pIC50

For orientation, consider the following solved cases.
C[C@H](Nc1nc(N)ncc1C#N)c1cc2cccc(Cl)c2c(=O)n1-c1ccccc1F ... > 7.00
Cc1ccc(-c2cccc3cc([C@H](C)Nc4nc(N)ncc4C#N)n(-c4ccccc4)c(=O)c23)cn1 ... > 7.00
COc1ncc(-c2cccc3cc([C@H](C)Nc4nc(N)ncc4C#N)n(-c4ccon4)c(=O)c23)cn1 ... 6.00 to 7.00
C[C@H](Nc1nc(Cl)ncc1[N+](=O)[O-])c1cc2cccc(Cl)c2c(=O)n1-c1ccccc1 ... 6.00 to 7.00
C[C@H](Nc1cc(N)ncn1)c1cc2cccc(Cl)c2c(=O)n1-c1ccccc1 ... 6.00 to 7.00

Bench note: what pIC50 did C[C@H](Nc1nc(N)ncc1-c1cccc(S(=O)(=O)N2CCCC2)c1)c1cc2cccc(Cl)c2c(=O)n1-c1ccccc1 show?
> 7.00

Which pIC50 value belongs to C[C@H](Nc1ncnc(N)c1C#N)c1cc2cccc(Cl)c2c(C(=O)NC2CCOCC2)n1 ?
6.00 to 7.00

What does the record list as pIC50 for COc1cc(-c2cccc3cc([C@H](C)Nc4nc(N)ncc4-c4cnc(C)s4)n(-c4ccccc4)c(=O)c23)ccn1 ?
> 7.00

Could you tell me which pIC50 is on file for C[C@H](Nc1nc(N)ncc1C#N)c1cc2cccc(-c3cncc(N(C)C)c3)c2c(=O)n1-c1ccccc1 ?
> 7.00

// returns reported pIC50 for input C[C@H](Nc1nc(N)ncc1C#N)c1cc2cccc(-c3ccc(N(C)C)cc3)c2c(=O)n1-c1ccccc1
> 7.00

Item under review: C[C@H](Nc1nc(N)ncc1C#N)c1cc2cccc(-c3cccc(Cl)c3)c2c(=O)n1-c1ccccc1 . Reported pIC50?
> 7.00

---

Known IC50 of a selection of compounds
Biological target: PIK3CA (human) (UniProt P42336)
Sequence (P42336 whole entry, looked up): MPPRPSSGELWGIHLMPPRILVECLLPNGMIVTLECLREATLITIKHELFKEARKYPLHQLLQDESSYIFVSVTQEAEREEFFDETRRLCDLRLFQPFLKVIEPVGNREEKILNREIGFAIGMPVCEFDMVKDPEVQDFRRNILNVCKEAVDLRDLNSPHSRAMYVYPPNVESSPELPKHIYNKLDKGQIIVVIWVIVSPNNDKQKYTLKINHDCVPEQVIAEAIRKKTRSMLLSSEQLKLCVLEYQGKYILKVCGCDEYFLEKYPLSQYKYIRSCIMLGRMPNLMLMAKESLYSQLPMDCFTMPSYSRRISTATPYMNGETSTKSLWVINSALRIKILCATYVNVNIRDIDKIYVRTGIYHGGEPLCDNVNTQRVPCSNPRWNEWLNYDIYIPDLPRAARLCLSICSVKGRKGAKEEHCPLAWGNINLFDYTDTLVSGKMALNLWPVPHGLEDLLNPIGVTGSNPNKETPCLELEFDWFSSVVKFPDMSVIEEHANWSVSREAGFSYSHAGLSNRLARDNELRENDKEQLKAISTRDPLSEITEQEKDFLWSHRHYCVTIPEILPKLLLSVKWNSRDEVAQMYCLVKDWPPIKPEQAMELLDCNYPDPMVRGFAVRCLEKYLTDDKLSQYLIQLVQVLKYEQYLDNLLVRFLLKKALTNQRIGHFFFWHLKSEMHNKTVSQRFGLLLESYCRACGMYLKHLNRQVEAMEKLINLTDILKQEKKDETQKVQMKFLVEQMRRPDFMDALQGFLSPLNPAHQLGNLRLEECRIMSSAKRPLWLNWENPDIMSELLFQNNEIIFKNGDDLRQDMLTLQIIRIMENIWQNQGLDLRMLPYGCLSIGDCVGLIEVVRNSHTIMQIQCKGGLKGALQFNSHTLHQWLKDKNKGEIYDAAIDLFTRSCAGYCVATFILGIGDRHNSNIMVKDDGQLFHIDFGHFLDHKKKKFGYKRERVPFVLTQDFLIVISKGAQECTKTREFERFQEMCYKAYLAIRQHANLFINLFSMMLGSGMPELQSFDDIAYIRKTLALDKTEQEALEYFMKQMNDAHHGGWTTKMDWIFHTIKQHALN
Assay: Assessment of PIK3CA Kinase Activity

C[C@H](Nc1nc(N)ncc1-c1ccccc1)c1cc2cccc(Cl)c2c(=O)n1-c1ccccc1 ... > 10000 nM
COc1cncc(-c2cccc3nc([C@H](C)Nc4nc(N)ncc4C#N)n(-c4ccccc4)c(=O)c23)c1 ... 100 to 1000 nM

Please examine the following record next.
# input compound: COc1cncc(-c2cccc3cc([C@H](C)Nc4nc(N)ncc4C#N)n(-c4ccccc4)c(=O)c23)c1 ; wanted: its IC50
100 to 1000 nM

---

Documented IC50 across a set of compounds
Biological target: UniProt:P48736
Sequence (P48736 whole entry, looked up): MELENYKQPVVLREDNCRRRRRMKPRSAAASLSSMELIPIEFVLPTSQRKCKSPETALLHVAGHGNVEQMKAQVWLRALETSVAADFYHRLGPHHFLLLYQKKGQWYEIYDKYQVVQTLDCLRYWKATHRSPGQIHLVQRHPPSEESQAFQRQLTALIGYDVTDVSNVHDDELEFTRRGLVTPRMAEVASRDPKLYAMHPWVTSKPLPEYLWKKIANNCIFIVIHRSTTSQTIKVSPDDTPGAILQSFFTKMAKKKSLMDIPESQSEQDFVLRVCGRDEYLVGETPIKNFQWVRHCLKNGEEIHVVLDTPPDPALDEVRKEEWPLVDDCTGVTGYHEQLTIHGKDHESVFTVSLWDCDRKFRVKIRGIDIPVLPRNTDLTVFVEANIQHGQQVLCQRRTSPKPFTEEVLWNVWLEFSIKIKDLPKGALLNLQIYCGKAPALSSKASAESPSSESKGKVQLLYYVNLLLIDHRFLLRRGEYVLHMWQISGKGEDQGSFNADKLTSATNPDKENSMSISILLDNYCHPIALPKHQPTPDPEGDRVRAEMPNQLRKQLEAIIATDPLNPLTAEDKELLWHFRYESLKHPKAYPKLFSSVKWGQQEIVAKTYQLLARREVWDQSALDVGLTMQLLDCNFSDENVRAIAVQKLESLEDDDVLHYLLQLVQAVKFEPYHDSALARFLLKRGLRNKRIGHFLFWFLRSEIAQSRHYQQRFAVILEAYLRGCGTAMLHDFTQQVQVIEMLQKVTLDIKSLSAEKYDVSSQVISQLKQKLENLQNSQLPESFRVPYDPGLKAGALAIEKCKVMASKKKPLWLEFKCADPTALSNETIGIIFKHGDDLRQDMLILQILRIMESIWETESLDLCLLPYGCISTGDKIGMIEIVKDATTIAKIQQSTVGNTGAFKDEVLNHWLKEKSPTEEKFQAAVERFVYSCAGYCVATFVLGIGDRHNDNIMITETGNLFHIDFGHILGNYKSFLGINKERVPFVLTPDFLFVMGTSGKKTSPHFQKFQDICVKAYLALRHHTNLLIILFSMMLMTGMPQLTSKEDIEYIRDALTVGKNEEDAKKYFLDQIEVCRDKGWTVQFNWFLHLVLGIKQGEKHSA

In the examples that follow, each entry is paired with its recorded IC50.
C[C@H](Nc1nc(N)ncc1C#N)c1cc2cccc(Cl)c2c(=O)n1-c1cscn1 ... < 100 nM
C[C@H](Nc1ncnc(Cl)c1[N+](=O)[O-])c1cc2cccc(Cl)c2c(=O)n1-c1ccccc1 ... > 10000 nM
C[C@H](Nc1nc(N)ncc1C#N)c1cc2cccc(-c3ccc(=O)n(C)c3)c2c(=O)n1-c1ccccc1 ... < 100 nM
C[C@H](Nc1nc(N)ncc1-c1cccc(NS(C)(=O)=O)c1)c1cc2cccc(Cl)c2c(=O)n1-c1ccccc1 ... < 100 nM
Cc1cccc2cc([C@H](C)Nc3nc(N)ncc3C#N)n(-c3cccc(F)c3)c(=O)c12 ... < 100 nM
COc1cc(-c2cccc3cc([C@H](C)Nc4nc(N)ncc4-c4cnc(C)s4)n(-c4ccccc4)c(=O)c23)ccn1 ... < 100 nM

I am curious: what IC50 value has been reported for COc1cc(-c2cccc3cc([C@@H](C)Nc4nc(N)ncc4C#N)n(-c4ccccc4)c(=O)c23)ccn1 ?
100 to 1000 nM

// lookup IC50 for COc1cc(-c2cccc3cc([C@H](C)Nc4nc(N)ncc4C(=O)N(C)C)n(-c4ccccc4)c(=O)c23)ccn1
< 100 nM

Looking for the measured IC50 of C[C@H](Nc1nc(N)ncc1C#N)c1cc2cccc(-c3ccc(S(N)(=O)=O)cc3)c2c(=O)n1-c1ccccc1 , can you help?
< 100 nM

# get_value(readout='IC50', item= CCN(C)C(=O)c1cnc(N)nc1N[C@@H](C)c1cc2cccc(-c3ccnc(OC)c3)c2c(=O)n1-c1ccccc1 )
100 to 1000 nM

Query: IC50; subject: Cc1cc(-c2cccc3nc([C@H](C)Nc4nc(N)ncc4C#N)n(-c4ccccc4)c(=O)c23)ccn1
< 100 nM

If you can, please state the reported IC50 value of COc1cc(-c2cccc3cc([C@H](C)Nc4nc(N)nc(C)c4C#N)n(-c4ccccc4)c(=O)c23)ccn1 .
< 100 nM

Give the measured IC50 of COc1cccc(-c2cccc3cc([C@H](C)Nc4nc(N)ncc4C#N)n(-c4ccccc4)c(=O)c23)c1 .
< 100 nM

Would you mind telling me what IC50 value was observed for C[C@H](Nc1nc(N)ncc1C#N)c1cc2cccc(Cl)c2c(=O)n1-c1ccc(C#N)cc1 ?
100 to 1000 nM

What does the data say about its IC50? Entry: C[C@H](Nc1nc(N)ncc1C#N)c1cc2cccc(Cl)c2c(=O)n1-c1cccnc1
< 100 nM

Cited source: the Kinase Knowledgebase extract (Sharma et al. 2016)
